Target: PRMT5 (Homo sapiens, UniProt O14744)
Construct: purchased Viva (custom protein)
Sequence (O14744 whole entry): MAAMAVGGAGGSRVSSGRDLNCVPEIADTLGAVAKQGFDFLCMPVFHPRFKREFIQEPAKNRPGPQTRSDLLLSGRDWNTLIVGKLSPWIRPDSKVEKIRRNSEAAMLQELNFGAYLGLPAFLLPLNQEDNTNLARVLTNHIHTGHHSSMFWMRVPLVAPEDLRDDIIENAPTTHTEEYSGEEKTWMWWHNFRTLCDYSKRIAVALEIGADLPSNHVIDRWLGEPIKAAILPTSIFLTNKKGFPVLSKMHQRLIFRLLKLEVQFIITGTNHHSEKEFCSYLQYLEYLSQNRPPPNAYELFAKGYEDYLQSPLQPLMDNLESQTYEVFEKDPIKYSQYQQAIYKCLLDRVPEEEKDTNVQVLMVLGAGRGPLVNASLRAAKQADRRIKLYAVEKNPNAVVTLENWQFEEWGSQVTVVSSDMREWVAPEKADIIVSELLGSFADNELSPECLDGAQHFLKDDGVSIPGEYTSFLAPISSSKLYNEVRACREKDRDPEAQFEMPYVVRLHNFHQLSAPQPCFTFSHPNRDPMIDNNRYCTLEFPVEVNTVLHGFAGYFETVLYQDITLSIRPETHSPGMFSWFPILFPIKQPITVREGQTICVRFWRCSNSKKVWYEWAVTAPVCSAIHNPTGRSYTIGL
Sequence (Q9BQA1 whole entry partner): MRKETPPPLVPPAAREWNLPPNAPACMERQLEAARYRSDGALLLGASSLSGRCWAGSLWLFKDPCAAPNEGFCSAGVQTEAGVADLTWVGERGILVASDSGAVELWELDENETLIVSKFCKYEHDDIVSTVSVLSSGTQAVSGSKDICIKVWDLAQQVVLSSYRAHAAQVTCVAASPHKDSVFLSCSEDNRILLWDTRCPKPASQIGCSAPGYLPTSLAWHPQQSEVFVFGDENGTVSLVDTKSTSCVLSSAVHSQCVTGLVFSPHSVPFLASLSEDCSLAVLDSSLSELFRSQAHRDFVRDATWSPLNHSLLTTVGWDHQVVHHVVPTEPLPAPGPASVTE
Experiment: PRMT5 biochemical IC50 assay with MTA as cofactor
Conditions: PRMT5, MTA as cofactor; read-out: MTA IC50
pIC50: −log10 of the molar value.
# pIC50 values compiled below

>>> result_value("Cc1cnn(-c2ccc([C@@H]3CC[C@@H](C)CN3C(=O)C(=O)Nc3cncc(C(N)=O)c3)cc2)c1 (racemic)")
"> 7.30"
>>> result_value("CCc1cc(NC(=O)C(=O)N2C[C@@H](C)CC[C@@H]2c2ccc3sc(C45CC(N(C)C)(C4)C5)nc3c2)cnc1N")
"> 7.30"

Let us move to another entry and its pIC50.
Param item = COc1ncc(NC(=O)C(=O)N2C[C@@H](C)CC[C@@H]2c2ccc(O)cc2)cc1C(N)=O (single isomer, unassigned) ; retrieve measured pIC50.
> 7.30

###

Biological target: PRMT5 (Homo sapiens, UniProt O14744)
Construct: purchased Viva (custom protein)
Assay: PRMT5 biochemical IC50 assay with no cofactor
Settings: PRMT5, no cofactor; read-out: No Cofactor/rel IC50
# IC50 values compiled below

Use the examples below as a reference point.
>>> result_value("COc1ncc(NC(=O)C(=O)N2C[C@H](C)CC[C@H]2c2cccs2)cc1C(N)=O (single isomer, unassigned) [Compound 310]")
"> 500 nM"
>>> result_value("Cc1cc(NC(=O)C(=O)N2C[C@H](C)CC[C@H]2c2ccc3c(c2)C(=O)NC3)cnc1N (single isomer, unassigned) [Compound 656]")
"> 500 nM"
>>> result_value("C[C@@H]1CC[C@@H](c2cc(Cl)cc(Cl)c2)N(C(=O)C(=O)Nc2cncc(C(N)=O)c2)C1 (racemic) [Compound 206]")
"50 to 500 nM"
>>> result_value("Cc1cc(NC(=O)C(=O)N2C[C@@H](C)CC[C@@H]2c2ccc(F)c(F)c2)cnc1N (single isomer, unassigned) [Compound 472]")
"> 500 nM"
>>> result_value("NC(=O)c1cncc(NC(=O)C(=O)N2CC[C@@H](O)C[C@H]2c2ccccc2)c1 (racemic) [Compound 185]")
"> 500 nM"

Let us move to another entry and its IC50.
Param item = Cc1cc(NC(=O)C(=O)N2C[C@H](C)CC[C@H]2c2cccc(N3CCN(C)CC3)c2)cnc1N (racemic) [Compound 1223] ; retrieve measured IC50.
50 to 500 nM

###

Target: PRMT5 (Homo sapiens, UniProt O14744)
Construct: purchased Viva (custom protein)
Assay: PRMT5 biochemical IC50 assay with no cofactor
Details: PRMT5, no cofactor; read-out: No Cofactor/rel IC50
pIC50: −log10 of the molar value.
# pIC50 values compiled below

>>> result_value("COc1ncc(NC(=O)C(=O)N2C[C@H](C)CC[C@H]2c2cc3cn[nH]c3s2)cc1C(N)=O (single isomer, unassigned)")
"< 6.30"
>>> result_value("COc1ncc(NC(=O)C(=O)N2C[C@@H](C)CC[C@@H]2c2cscn2)cc1C(N)=O (single isomer, unassigned)")
"< 6.30"

Let us move to another entry and its pIC50.
Param item = COc1ncc(NC(=O)C(=O)N2C[C@@H](C)CC[C@@H]2c2ccc3sc(C4(CN(C)C)CC4)nc3c2)cc1C(N)=O (single isomer, unassigned) ; retrieve measured pIC50.
> 7.30
